System: HL-60(TB)
Test: Growth inhibition of human HL-60(TB) cells assessed as cell growth at 10 uM by sulforhodamine B assay
Type: functional
Settings: read-out: Activity
We begin with a simple list: items and their reported growth at 10 µM.
Give just the number in %; leave the unit off.

Example cases with answers are listed next.
COMPOUND: CC(C)=CC(=O)O[C@@H]1CC(C)(C)C[C@H]2C3=CC[C@@H]4[C@@]5(C)CCC(=O)C(C)(C)[C@@H]5CC[C@@]4(C)[C@]3(C)CC[C@@]12C(=O)O
TEST TARGET: HL-60(TB)
UNIT DESCRIPTOR: %
growth at 10 µM: 10.2

COMPOUND: CC(C)=CC(=O)O[C@@H]1CC(C)(C)C[C@H]2C3=CC[C@@H]4[C@@]5(C)CC[C@H](O)C(C)(C)[C@@H]5CC[C@@]4(C)[C@]3(C)CC[C@@]12C(=O)O [Reduced Lantadene B]
TEST TARGET: HL-60(TB)
UNIT DESCRIPTOR: %
growth at 10 µM: 14

COMPOUND: CC1(C)C[C@@H](O)[C@]2(C(=O)O)CC[C@]3(C)C(=CC[C@@H]4[C@@]5(C)CC[C@H](O)C(C)(C)[C@@H]5CC[C@]43C)[C@@H]2C1
TEST TARGET: HL-60(TB)
UNIT DESCRIPTOR: %
growth at 10 µM: 82

COMPOUND: C/C=C(/C)C(=O)O[C@@H]1CC(C)(C)C[C@H]2C3=CC[C@@H]4[C@@]5(C)CC[C@H](O)C(C)(C)[C@@H]5CC[C@@]4(C)[C@]3(C)CC[C@@]12C(=O)O [Reduced Lantadene A]
TEST TARGET: HL-60(TB)
UNIT DESCRIPTOR: %
growth at 10 µM: -50.8

Input: Look up growth at 10 µM: C/C=C(/C)C(=O)O[C@@H]1CC(C)(C)C[C@H]2C3=CC[C@@H]4[C@@]5(C)CCC(=O)C(C)(C)[C@@H]5CC[C@@]4(C)[C@]3(C)CC[C@@]12C(=O)O [LANTADENE A]
Output: -5.42

Input: Given the compound `COc1cc(/C=C2\C[C@]3(C)[C@H]4CC=C5[C@@H]6CC(C)(C)C[C@@H](O)[C@]6(C(=O)O)CC[C@@]5(C)[C@]4(C)CC[C@H]3C(C)(C)C2=O)ccc1O` , what is its reported growth at 10 µM?
Output: 71.1

Input: Entry `CC1(C)C[C@@H](O)[C@]2(C(=O)O)CC[C@]3(C)C(=CC[C@@H]4[C@@]5(C)C/C(=C\C=C\c6ccccc6)C(=O)C(C)(C)[C@@H]5CC[C@]43C)[C@@H]2C1` has what growth at 10 µM?
Output: 38.8

Input: Query (compound): `CC1(C)C[C@@H](O)[C@]2(C(=O)O)CC[C@]3(C)C(=CC[C@@H]4[C@@]5(C)CCC(=O)C(C)(C)[C@@H]5CC[C@]43C)[C@@H]2C1` ; field requested: growth at 10 µM
Output: 75.2

* * *

Test system: HL-60(TB)
Test: Growth inhibition of human HL-60(TB) cells by sulforhodamine B assay
Assay type: functional
Conditions: read-out: GI50
Criterion: GI50 strictly less than 2000 nM. Met: 1 (yes). Not met: 0 (no).

// below: answered compounds
SMILES STRING: CC(C)=CC(=O)O[C@@H]1CC(C)(C)C[C@H]2C3=CC[C@@H]4[C@@]5(C)CC[C@H](O)C(C)(C)[C@@H]5CC[C@@]4(C)[C@]3(C)CC[C@@]12C(=O)O
CLASS ASSIGNMENT: 0 (no)

SMILES STRING: CC(C)=CC(=O)O[C@@H]1CC(C)(C)C[C@H]2C3=CC[C@@H]4[C@@]5(C)CCC(=O)C(C)(C)[C@@H]5CC[C@@]4(C)[C@]3(C)CC[C@@]12C(=O)O
CLASS ASSIGNMENT: 0 (no)

SMILES STRING: C/C=C(/C)C(=O)O[C@@H]1CC(C)(C)C[C@H]2C3=CC[C@@H]4[C@@]5(C)CC[C@H](O)C(C)(C)[C@@H]5CC[C@@]4(C)[C@]3(C)CC[C@@]12C(=O)O
CLASS ASSIGNMENT: 0 (no)

SMILES STRING: CC1(C)C[C@@H](O)[C@]2(C(=O)O)CC[C@]3(C)C(=CC[C@@H]4[C@@]5(C)C/C(=C\C=C\c6ccccc6)C(=O)C(C)(C)[C@@H]5CC[C@]43C)[C@@H]2C1
CLASS ASSIGNMENT: 0 (no)

# input for lookup
Input: Is GI50 of `C/C=C(/C)C(=O)O[C@@H]1CC(C)(C)C[C@H]2C3=CC[C@@H]4[C@@]5(C)CCC(=O)C(C)(C)[C@@H]5CC[C@@]4(C)[C@]3(C)CC[C@@]12C(=O)O` strictly below 2000 nM?
Output: 1 (yes)
